The reported numbers originate from patent US20190226949A1.

Test: Photophysical measurements (absorption, emission, lifetime, quantum yield) in diluted solutions
Format: physicochemical
Conditions: DCM, deaerated, 298K
Overview of recorded τdeaer, excited state lifetime (relative weight in parentheses) for various compounds
measured_metric: τdeaer, excited state lifetime (relative weight in parentheses) (ns)

compound="C[n+]1nc2[n](n1)[Ir]13([c]4ccccc4-c4cccc[n+]41)([c]1ccccc1-c1cccc[n+]13)[n+]1cc(-c3ccc(C#N)cc3)ccc1-2 [[Ir(ppy)2(MeTzPyPhCN)]^+]" units_of_measure=ns readout_number=434
compound="C[n+]1nc2[n](n1)[Ir]13([c]4ccccc4-c4cccc[n+]41)([c]1ccccc1-c1cccc[n+]13)[n+]1ccc3ccccc3c1-2 [[Ir(ppy)2(MeTziQn)]^+]" units_of_measure=ns readout_number=485
compound="C[n+]1nc2[n](n1)[Ir]13([c]4ccccc4-c4cccc[n+]41)([c]1ccccc1-c1cccc[n+]13)[n+]1c-2ccc2ccccc21 [[Ir(ppy)2(MeTzQn)]^+]" units_of_measure=ns readout_number=546
compound="N#Cc1ccc(-c2ccc3[n+](c2)[Ir]24([c]5ccccc5-c5cccc[n+]52)([c]2ccccc2-c2cccc[n+]24)[n]2nnnc2-3)cc1 [[Ir(ppy)2(TzPyPhCN)]]" units_of_measure=ns readout_number=880
compound="c1cc[c]2c(c1)-c1cccc[n+]1[Ir]213([c]2ccccc2-c2cccc[n+]21)[n]1nnnc1-c1c2ccccc2cc[n+]13 [[Ir(ppy)2(TziQn)]]" units_of_measure=ns readout_number=6713

----------
Assay: Photophysical measurements (absorption, emission, lifetime, quantum yield) in diluted solutions
Format: physicochemical
Details: DCM, aerated, 298K
measured_metric: τaer, excited state lifetime (relative weight in parentheses) (ns)

molecule="C[n+]1nc2[n](n1)[Ir]13([c]4cc(F)cc(F)c4-c4cccc[n+]41)([c]1cc(F)cc(F)c1-c1cccc[n+]13)[n+]1cc(C#N)ccc1-2 [[Ir(F2ppy)2(MeTzPyCN)]^+]" units_of_measure=ns readout_number=287
molecule="C[n+]1nc2[n](n1)[Ir]13([c]4ccccc4-c4cccc[n+]41)([c]1ccccc1-c1cccc[n+]13)[n+]1ccc3ccccc3c1-2 [[Ir(ppy)2(MeTziQn)]^+]" units_of_measure=ns readout_number=208
molecule="N#Cc1ccc(-c2ccc3[n+](c2)[Ir]24([c]5ccccc5-c5cccc[n+]52)([c]2ccccc2-c2cccc[n+]24)[n]2nnnc2-3)cc1 [[Ir(ppy)2(TzPyPhCN)]]" units_of_measure=ns readout_number=114
molecule="c1cc[c]2c(c1)-c1cccc[n+]1[Ir]213([c]2ccccc2-c2cccc[n+]21)[n]1nnnc1-c1c2ccccc2cc[n+]13 [[Ir(ppy)2(TziQn)]]" units_of_measure=ns readout_number=497
molecule="C[n+]1nc2[n](n1)[Ir]13([c]4ccccc4-c4cccc[n+]41)([c]1ccccc1-c1cccc[n+]13)[n+]1c-2ccc2ccccc21 [[Ir(ppy)2(MeTzQn)]^+]" units_of_measure=ns readout_number=218
molecule="C[n+]1nc2[n](n1)[Ir]13([c]4ccccc4-c4cccc[n+]41)([c]1ccccc1-c1cccc[n+]13)[n+]1cc(-c3ccc(C#N)cc3)ccc1-2 [[Ir(ppy)2(MeTzPyPhCN)]^+]" units_of_measure=ns readout_number=184
molecule="N#Cc1ccc2[n+](c1)[Ir]13([c]4cc(F)cc(F)c4-c4cccc[n+]41)([c]1cc(F)cc(F)c1-c1cccc[n+]13)[n]1nnnc1-2 [[Ir(F2ppy)2(TzPyCN)]]" units_of_measure=ns readout_number=140
molecule="N#Cc1ccc2[n+](c1)[Ir]13([c]4ccccc4-c4cccc[n+]41)([c]1ccccc1-c1cccc[n+]13)[n]1nnnc1-2 [[Ir(ppy)2(TzPyCN)]]" units_of_measure=ns readout_number=131
molecule="c1cc[c]2c(c1)-c1cccc[n+]1[Ir]213([c]2ccccc2-c2cccc[n+]21)[n]1nnnc1-c1ccc2ccccc2[n+]13 [[Ir(ppy)2(TzQn)]]" units_of_measure=ns readout_number=153

----------
Experiment: Photophysical measurements (absorption, emission, lifetime, quantum yield) in diluted solutions
Format: physicochemical
Settings: DCM, aerated; versus Ru(bpy)3^2+ in water (φr = 0.028)
Overview of recorded Φaer, quantum yield for various compounds
measured_metric: Φaer, quantum yield

compound="c1cc[c]2c(c1)-c1cccc[n+]1[Ir]213([c]2ccccc2-c2cccc[n+]21)[n]1nnnc1-c1c2ccccc2cc[n+]13 [[Ir(ppy)2(TziQn)]]" measured_metric="Φaer, quantum yield" readout_number=0.036
compound="C[n+]1nc2[n](n1)[Ir]13([c]4cc(F)cc(F)c4-c4cccc[n+]41)([c]1cc(F)cc(F)c1-c1cccc[n+]13)[n+]1cc(C#N)ccc1-2 [[Ir(F2ppy)2(MeTzPyCN)]^+]" measured_metric="Φaer, quantum yield" readout_number=0.057
compound="C[n+]1nc2[n](n1)[Ir]13([c]4ccccc4-c4cccc[n+]41)([c]1ccccc1-c1cccc[n+]13)[n+]1c-2ccc2ccccc21 [[Ir(ppy)2(MeTzQn)]^+]" measured_metric="Φaer, quantum yield" readout_number=0.028
compound="c1cc[c]2c(c1)-c1cccc[n+]1[Ir]213([c]2ccccc2-c2cccc[n+]21)[n]1nnnc1-c1ccc2ccccc2[n+]13 [[Ir(ppy)2(TzQn)]]" measured_metric="Φaer, quantum yield" readout_number=0.021
compound="N#Cc1ccc2[n+](c1)[Ir]13([c]4ccccc4-c4cccc[n+]41)([c]1ccccc1-c1cccc[n+]13)[n]1nnnc1-2 [[Ir(ppy)2(TzPyCN)]]" measured_metric="Φaer, quantum yield" readout_number=0.055
compound="C[n+]1nc2[n](n1)[Ir]13([c]4ccccc4-c4cccc[n+]41)([c]1ccccc1-c1cccc[n+]13)[n+]1cc(-c3ccc(C#N)cc3)ccc1-2 [[Ir(ppy)2(MeTzPyPhCN)]^+]" measured_metric="Φaer, quantum yield" readout_number=0.057
compound="N#Cc1ccc2[n+](c1)[Ir]13([c]4cc(F)cc(F)c4-c4cccc[n+]41)([c]1cc(F)cc(F)c1-c1cccc[n+]13)[n]1nnnc1-2 [[Ir(F2ppy)2(TzPyCN)]]" measured_metric="Φaer, quantum yield" readout_number=0.042

----------
Assay: Lipophilicity by shake-flask method (7.4-buffered PBS / n-octanol)
Type: physicochemical
Conditions: 7.4-buffered PBS solution and n-octanol
measured_metric: logD7.4, distribution coefficient

compound="c1cc[c]2c(c1)-c1cccc[n+]1[Ir]213([c]2ccccc2-c2cccc[n+]21)[n]1nnnc1-c1ccc2ccccc2[n+]13 [[Ir(ppy)2(TzQn)]]" readout_number=2.23
compound="N#Cc1ccc2[n+](c1)[Ir]13([c]4ccccc4-c4cccc[n+]41)([c]1ccccc1-c1cccc[n+]13)[n]1nnnc1-2 [[Ir(ppy)2(TzPyCN)]]" readout_number=2.09
compound="N#Cc1ccc2[n+](c1)[Ir]13([c]4cc(F)cc(F)c4-c4cccc[n+]41)([c]1cc(F)cc(F)c1-c1cccc[n+]13)[n]1nnnc1-2 [[Ir(F2ppy)2(TzPyCN)]]" readout_number=2.01
compound="c1cc[c]2c(c1)-c1cccc[n+]1[Ir]213([c]2ccccc2-c2cccc[n+]21)[n]1nnnc1-c1c2ccccc2cc[n+]13 [[Ir(ppy)2(TziQn)]]" readout_number=2.57
compound="N#Cc1ccc(-c2ccc3[n+](c2)[Ir]24([c]5ccccc5-c5cccc[n+]52)([c]2ccccc2-c2cccc[n+]24)[n]2nnnc2-3)cc1 [[Ir(ppy)2(TzPyPhCN)]]" readout_number=2.68

----------
Assay: Photophysical measurements (absorption, emission, lifetime, quantum yield) in diluted solutions
Format: physicochemical
Conditions: H2O with 0.1% DMSO, 298K, aerated
measured_metric: Emission λem (nm)

compound="C[n+]1nc2[n](n1)[Ir]13([c]4ccccc4-c4cccc[n+]41)([c]1ccccc1-c1cccc[n+]13)[n+]1ccc3ccccc3c1-2 [[Ir(ppy)2(MeTziQn)]^+]" units_of_measure=nm readout_number=660
compound="c1cc[c]2c(c1)-c1cccc[n+]1[Ir]213([c]2ccccc2-c2cccc[n+]21)[n]1nnnc1-c1c2ccccc2cc[n+]13 [[Ir(ppy)2(TziQn)]]" units_of_measure=nm readout_number=590
compound="C[n+]1nc2[n](n1)[Ir]13([c]4ccccc4-c4cccc[n+]41)([c]1ccccc1-c1cccc[n+]13)[n+]1c-2ccc2ccccc21 [[Ir(ppy)2(MeTzQn)]^+]" units_of_measure=nm readout_number=630
compound="C[n+]1nc2[n](n1)[Ir]13([c]4ccccc4-c4cccc[n+]41)([c]1ccccc1-c1cccc[n+]13)[n+]1cc(-c3ccc(C#N)cc3)ccc1-2 [[Ir(ppy)2(MeTzPyPhCN)]^+]" units_of_measure=nm readout_number=605
compound="N#Cc1ccc2[n+](c1)[Ir]13([c]4ccccc4-c4cccc[n+]41)([c]1ccccc1-c1cccc[n+]13)[n]1nnnc1-2 [[Ir(ppy)2(TzPyCN)]]" units_of_measure=nm readout_number=618
compound="c1cc[c]2c(c1)-c1cccc[n+]1[Ir]213([c]2ccccc2-c2cccc[n+]21)[n]1nnnc1-c1ccc2ccccc2[n+]13 [[Ir(ppy)2(TzQn)]]" units_of_measure=nm readout_number=600
compound="C[n+]1nc2[n](n1)[Ir]13([c]4cc(F)cc(F)c4-c4cccc[n+]41)([c]1cc(F)cc(F)c1-c1cccc[n+]13)[n+]1cc(C#N)ccc1-2 [[Ir(F2ppy)2(MeTzPyCN)]^+]" units_of_measure=nm readout_number=636
compound="N#Cc1ccc(-c2ccc3[n+](c2)[Ir]24([c]5ccccc5-c5cccc[n+]52)([c]2ccccc2-c2cccc[n+]24)[n]2nnnc2-3)cc1 [[Ir(ppy)2(TzPyPhCN)]]" units_of_measure=nm readout_number=580
compound="N#Cc1ccc2[n+](c1)[Ir]13([c]4cc(F)cc(F)c4-c4cccc[n+]41)([c]1cc(F)cc(F)c1-c1cccc[n+]13)[n]1nnnc1-2 [[Ir(F2ppy)2(TzPyCN)]]" units_of_measure=nm readout_number=552
